Reference for the values: ChEMBL document CHEMBL3988442

Test system: Ubiquitin-activating enzyme e1, putative (Leishmania donovani (strain BPK282A1))
Sequence (whole entry): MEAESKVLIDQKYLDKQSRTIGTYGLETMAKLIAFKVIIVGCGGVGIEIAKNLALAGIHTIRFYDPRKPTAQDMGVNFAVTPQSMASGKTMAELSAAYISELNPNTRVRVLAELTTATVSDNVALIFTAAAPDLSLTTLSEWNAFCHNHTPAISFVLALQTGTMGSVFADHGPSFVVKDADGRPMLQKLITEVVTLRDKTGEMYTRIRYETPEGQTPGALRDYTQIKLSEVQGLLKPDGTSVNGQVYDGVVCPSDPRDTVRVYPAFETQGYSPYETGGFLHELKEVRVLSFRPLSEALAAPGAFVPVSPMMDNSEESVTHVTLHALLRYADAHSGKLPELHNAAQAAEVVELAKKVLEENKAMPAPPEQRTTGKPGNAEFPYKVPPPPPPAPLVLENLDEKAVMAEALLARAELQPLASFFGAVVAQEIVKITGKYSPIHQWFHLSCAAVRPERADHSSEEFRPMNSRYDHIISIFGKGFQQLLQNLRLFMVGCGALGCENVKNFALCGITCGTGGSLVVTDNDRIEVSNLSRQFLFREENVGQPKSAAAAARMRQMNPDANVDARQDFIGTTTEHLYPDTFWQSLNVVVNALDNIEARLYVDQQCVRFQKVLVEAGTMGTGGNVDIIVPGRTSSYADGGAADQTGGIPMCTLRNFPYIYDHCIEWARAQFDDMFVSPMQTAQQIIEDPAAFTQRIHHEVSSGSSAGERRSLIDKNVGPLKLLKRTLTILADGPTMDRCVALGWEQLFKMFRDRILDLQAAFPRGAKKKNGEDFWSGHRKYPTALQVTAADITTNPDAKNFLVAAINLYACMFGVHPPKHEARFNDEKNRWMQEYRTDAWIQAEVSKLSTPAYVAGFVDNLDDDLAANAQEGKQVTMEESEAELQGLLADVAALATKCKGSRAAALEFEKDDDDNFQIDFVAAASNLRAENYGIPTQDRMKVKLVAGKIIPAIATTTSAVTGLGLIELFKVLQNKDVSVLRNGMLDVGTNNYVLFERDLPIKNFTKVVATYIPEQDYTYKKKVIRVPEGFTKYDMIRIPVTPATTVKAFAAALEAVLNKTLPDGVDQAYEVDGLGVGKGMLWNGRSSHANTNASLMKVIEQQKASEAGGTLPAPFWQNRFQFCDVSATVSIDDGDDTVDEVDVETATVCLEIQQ
Assay comment: Leishmania donovani Ubiquitin Activating Enzyme (LdE1)
Assay type: functional
Parameters: scale not given: direction of the effect not stated beside the values
Experimental conditions: 30 µM
Potency and affinity values are given separately.
Measured property: Percent Effect (%)
Express the result in % but write the number alone.

Known results for compounds:
CCc1nc(CN2CCCN(c3nccs3)CC2)no1 :: 15.6
O=c1ccc(-c2cccs2)nn1CN1CCCCCC1 :: -4
CNC(=O)N1C[C@H]2CC[C@@]3(N=C(c4ccccc4)NC3=O)[C@H]2C1 :: 2.6
CCC1=N[C@@]2(CC[C@@H]3CN(Cc4ccc(Cl)cc4)C[C@@H]32)C(=O)N1 :: 2.7
CCCC1CCCN(Cc2csc(-c3cnn(C)c3)n2)CC1 (stereo not drawn) :: -5.26
Cc1nn(CCO)c(C)c1CNC1CCc2c(Cl)cccc21 (stereo not drawn) :: 8
CC(C)c1n[nH]c(C2CN(C(=O)c3cccc4cn[nH]c34)CCO2)n1 (stereo not drawn) :: 7.89
Cc1nc(CN2CCn3cc(CNC(=O)C4CCC4)nc3C2)cs1 :: 13.3
O=C(c1cc(F)ccc1F)C1CCN(C(=O)c2ccccn2)CC1 :: 13
Cc1cc(C)nc(N2CCN(C(=O)c3cc(Cl)c[nH]3)CC2)n1 :: 8.22

Form field - read-out: Percent Effect; system: Ubiquitin-activating enzyme e1, putative (Leishmania donovani (strain BPK282A1)); submitted item: CN(C)[C@@H]1CCN(C(=O)c2ccsc2)[C@H]1Cc1cnn(C)c1
0

Provide value of Percent Effect for this record tested with Ubiquitin-activating enzyme e1, putative (Leishmania donovani (strain BPK282A1)): CCc1noc(C(C)N2CCC(C(=O)Nc3cnn(CC)c3)CC2)n1 (stereo not drawn)
1.27

Ubiquitin-activating enzyme e1, putative (Leishmania donovani (strain BPK282A1)) / Percent Effect / Cc1nc(-c2ccc(Cl)s2)sc1C(=O)NCCS(N)(=O)=O : value?
10.8

Item: Cc1nc(C2CCCN(C(=O)c3cccc(S(C)(=O)=O)c3)C2)no1 (stereo not drawn) Test system: Ubiquitin-activating enzyme e1, putative (Leishmania donovani (strain BPK282A1)) Read-out: Percent Effect Value: ?
-1.27

Form field - read-out: Percent Effect; system: Ubiquitin-activating enzyme e1, putative (Leishmania donovani (strain BPK282A1)); submitted item: Cc1cc(C)n(C2CN(Cc3noc(-c4ccccc4)n3)C2)n1
-7.79

Any idea what Percent Effect came out for Cn1nc(C2CCCN(C(=O)CO)C2)cc1O (stereo not drawn) on Ubiquitin-activating enzyme e1, putative (Leishmania donovani (strain BPK282A1))?
-6.76

Given the entry CC(C)(C)n1cc(C(=O)N2CCCN(Cc3cccs3)CC2)cn1 , what Percent Effect was observed with Ubiquitin-activating enzyme e1, putative (Leishmania donovani (strain BPK282A1))?
5.26

Lab request: please report Percent Effect under test system Ubiquitin-activating enzyme e1, putative (Leishmania donovani (strain BPK282A1)) for COc1cc(C)nc(N2CCN(C(=O)c3ccc(Cl)o3)CC2)n1
2.7

For Ubiquitin-activating enzyme e1, putative (Leishmania donovani (strain BPK282A1)), provide Percent Effect of Cc1noc(C)c1CN1C(=O)[C@H]2CC[C@@H]1CN(Cc1cccnc1N)C2 please.
1.39

Return Percent Effect measured with Ubiquitin-activating enzyme e1, putative (Leishmania donovani (strain BPK282A1)) given this compound: N#Cc1ccc(C(=O)N2CC[C@H]3[C@@H]2CCC(=O)N3c2ccccc2)cc1
0

Recorded Percent Effect for COc1ccc(CCNC(=O)NC2CCCC2)cc1OC with Ubiquitin-activating enzyme e1, putative (Leishmania donovani (strain BPK282A1)), please?
8.11

Form: Entry = CC[C@@]1(O)CCN(C(=O)c2ccc(SC)cc2)C[C@H]1O | System = Ubiquitin-activating enzyme e1, putative (Leishmania donovani (strain BPK282A1)) | Percent Effect = ____
4.17

Notebook: pull reported Percent Effect for Ubiquitin-activating enzyme e1, putative (Leishmania donovani (strain BPK282A1)), entry Cc1ccc(CNC(c2ccccc2)c2nccn2C)cc1C (stereo not drawn)
18.9
